assay: binders of probe aFGF2 on microarray, primary screen, stem cell growth factor project, biochemical, small-molecule microarray, fluorescence 635/667 (AID 1067); conditions: higher = more signal;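 note: measures binding of biotinylated aFGF2 protein to printed compounds on slides; z-score merges feature fluorescence and signal-to-noise across triplicate slides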
endpoint: composite z-score
One number for each entry.

Examples with their reported composite z-score follow.
compound: CCC(CC)C(O)C1C=CC2C(=O)N(C)C(=O)C2N1N1CCCCC1 (centres undefined)
composite z-score: 0.121

compound: C[C@@H](OCc1ccccc1)C1NC(=O)[C@@]23C(=O)N[C@@H](Cc4ccccc4)C2[C@H](C)[C@@]2(C)O[C@H]2C3/C=C/C/C=C\CNC(=O)[C@H](Cc2ccccc2)NC1=O (some centres undefined)
composite z-score: -0.199

compound: COCCOC(=O)N1C(=O)[C@@]2(c3cc(C#CCC(C(=O)OC)C(=O)OC)ccc31)[C@H](C(=O)N1CCc3cc(OC)c(OC)cc3C1)[C@H]1C(=O)O[C@H](c3ccccc3)[C@H](c3ccccc3)N1[C@@H]2c1ccc(O)cc1
composite z-score: 0.0732

# batch size: 4; output composite z-score per entry
1. CC(C)(C)N1CC=CC23O[C@@H]4/C=C\CCCOC(=O)C4[C@H]2C(=O)N(CCCCCCO)[C@@H]3C1=O (some centres undefined)
2. COC(=O)C(CC#Cc1ccc2c(c1)[C@]1(C(=O)N2)[C@H](c2ccc(O)cc2)N2[C@H](c3ccccc3)[C@H](c3ccccc3)OC(=O)[C@H]2[C@@H]1C(=O)N1CCc2cc(OC)c(OC)cc2C1)C(=O)OC
3. C=CCC(OC(C)=O)[C@@H]1[C@@H](N(Cc2cc3ccccc3o2)C(=O)c2cccc3ccccc23)c2cc(OCCCO)ccc2N1C(=O)c1ccc2ccccc2c1 (some centres undefined)
4. CC(C)C[C@@H]1NC(=O)[C@@]23C(=O)N[C@@H](Cc4ccccc4)C2[C@H](C)[C@@]2(C)O[C@H]2C3/C=C/C/C=C\CNC(=O)[C@@H](CC(C)C)NC1=O (some centres undefined)

1. -0.208
2. -0.0692
3. -0.0993
4. -0.0878

# batch size: 5; output composite z-score per entry
1. C[N+](C)(C)CCCCCCNC(=O)[C@@H]1C[C@@H]2C(=O)N[C@@H](Cc3ccccc3)C(=O)N2[C@@H]1c1ccc(O)cc1
2. COc1ccc(NN2C(C(O)c3ccc(OC)cc3)C=CC3C(=O)N(C4CCCCC4)C(=O)C32)cc1 (centres undefined)
3. C/C=C/CN(C(=O)C#Cc1ccccc1)[C@H](CO[Si](C)(C)C(C)(C)C)c1ccccc1
4. CCCC=C(CCC)[C@@H](NC(=O)c1ccco1)c1ccc(C(=O)OC)cc1
5. O=C1OCCC=C[C@H]2OC34C=CCN(CCN5CCOCC5)C(=O)[C@H]3N(CCCO)C(=O)[C@@H]4C12 (some centres undefined)

1. -0.0138
2. -0.0131
3. -0.237
4. 0.209
5. -0.14

# batch size: 2; output composite z-score per entry
1. COc1ccc([Si](C)(C)[C@H]2[C@H](CCn3cc([C@H](O)c4ccccc4)nn3)O[C@@]3(C(=O)N(c4ccccc4)c4ccccc43)[C@@H]2C)cc1
2. CC(C)CNC(=O)[C@@H]1c2ccccc2C(=O)N(Cc2ccccc2Cl)[C@H]1c1ccc(CO)cc1

1: -0.137; 2: -0.129

---

Could you please report measured composite z-score for the items listed next?
tested on: Neuregulin-1 EGF-like domain; experiment: binders of neuregulin-1 EGF-like domain, primary screen, biochemical, small-molecule microarray, 635 nm fluorescence (AID 1081); conditions: small-molecule microarray binding, higher = more signal;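 note: binding of the protein to compounds printed on small-molecule microarray slides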
Answers are plain numbers.

Examples with their reported composite z-score follow.
compound: COc1ccc(NC(=O)O[C@H]2[C@H](OC(=O)Nc3ccc4c(c3)OCO4)[C@H](OC(=O)Nc3ccc4c(c3)OCO4)[C@@H](OC)O[C@@H]2CO)cc1
target-entity: Neuregulin-1 EGF-like domain
meas-value: 0.905
//
compound: COC(=O)C1=CC(CCCO)=CC(c2ccc(CN3CCCC3)cc2)N(Cc2sc3ccccc3c2Cl)C=C1C(=O)OC (stereo not given)
target-entity: Neuregulin-1 EGF-like domain
meas-value: 1.32
//
compound: C=C(COC)/C(=C/C[C@H](OC(=O)c1ccncc1)c1ccc(OCCO)cc1)c1cc(C(=O)OC)ccc1OC
target-entity: Neuregulin-1 EGF-like domain
meas-value: 1.03
//
compound: Cc1ccc(S(=O)(=O)N2[C@@H](c3ccccc3)C(C(=O)O)=CC[C@H]2c2ccc(C#N)cc2)cc1
target-entity: Neuregulin-1 EGF-like domain
meas-value: 0.808
//
compound: COCCCN1C(=O)[C@@]2(Cc3ccccc31)c1ccccc1C(=O)N(Cc1ccccc1OC)[C@H]2c1ccc(CO)cc1
target-entity: Neuregulin-1 EGF-like domain
meas-value: -0.944
//
compound: C=C(COC)C(=O)CC[C@@H](OC(C)=O)c1ccc(OCCO)cc1
target-entity: Neuregulin-1 EGF-like domain
meas-value: 0.835
//
compound: CC#CCO[Si](C#CCCCCCC)(C(C)C)C(C)C
target-entity: Neuregulin-1 EGF-like domain
meas-value: 0.439
//
compound: N#Cc1ccc(C(O)C2C=CC3C(=O)N(c4ccccc4)C(=O)C3N2Nc2ccc([N+](=O)[O-])cc2)cc1 (stereo not given)
target-entity: Neuregulin-1 EGF-like domain
meas-value: 1.28

# batch size: 7; output composite z-score per entry
1. COC(=O)[C@@]1(Cc2ccccc2)[C@@H]2[C@@H](CC(=O)[C@H]2CC(=O)C(=O)N(C)C)CN1C(=O)c1ccccc1
2. COc1ccc([Si](C)(C)[C@H]2[C@H](CCn3cc([C@H](O)c4ccccc4)nn3)O[C@@]3(C(=O)N(c4ccccc4)c4ccccc43)[C@@H]2C)cc1
3. O=C1C2C=CC(C(O)c3ccc([N+](=O)[O-])cc3)N(Nc3ccccc3)C2C(=O)N1c1ccccc1 (stereo not given)
4. COc1cc(OC)c(C(O)C2C=CC3C(=O)N(c4ccccc4)C(=O)C3N2Nc2ccccc2F)cc1Br (stereo not given)
5. C=CCC(OC(C)=O)[C@@H]1[C@@H](N(Cc2ccc(-c3ccccc3)cc2)C(=O)c2cccc3ccccc23)c2cc(OCCCO)ccc2N1C(=O)c1ccc2ccccc2c1 (stereo not given in full)
6. O=c1cccc(-c2ccccc2C(F)(F)F)o1
7. CCOC(=O)C[C@H]1[C@H](OC(=O)c2ccc(-c3ccccc3)cc2)[C@@H](NC(=O)c2ccc3ccccc3c2)c2cc(OCCCO)ccc2N1C(=O)c1ccccc1

1. 1.21
2. 0.248
3. 1.25
4. 1.25
5. -0.172
6. 0.381
7. 0.627

---

Could you please report measured composite z-score for the items listed next?
tested on: PRMT1 (protein arginine N-methyltransferase 1); experiment: PRMT1 binders on small-molecule microarrays, primary screen, biochemical, small-molecule microarray, 635 nm fluorescence (AID 1088); conditions: small-molecule microarray binding, higher = more signal;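 note: binding of Prmt1 protein to compounds spotted on small-molecule microarray slides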
Give bare numbers.

Examples with their reported composite z-score follow.
molecule: CN1C(=O)C2C(C1=O)C1C=C(c3ccc(CO)cc3)C2C(c2cccs2)N1C (configuration not stated)
composite z-score: -0.27

molecule: COc1ccc(CCNC(=O)[C@@]2(Sc3ccc(C)cc3)CC(=O)N(C(C)C)[C@@H]2c2ccc(CO)cc2)cc1
composite z-score: 0.633

molecule: O=C1O[C@H](c2ccccc2)[C@H](c2ccccc2)N2[C@H]1[C@@H](C(=O)NC[C@H](O)c1ccccc1)[C@]1(C(=O)Nc3ccc(C#CCCO)cc31)[C@H]2c1ccccc1OCCO
composite z-score: 1.54

molecule: C=C(/C(=C/C[C@@H](OC(C)=O)c1ccccc1OCCO)c1cc(C(=O)OC)ccc1OC)C(C)C
composite z-score: 0.551

molecule: COc1cc2c(cc1O)C(c1ccc(CN3CCCC3)cc1)N(Cc1cccc(OC(F)(F)F)c1)CC2 (configuration not stated)
composite z-score: 0.996

# batch size: 2; output composite z-score per entry
1. CCOC(=O)C[C@H]1[C@H](OC(=O)c2ccc(-c3ccccc3)cc2)[C@@H](NC(=O)CC(C)C)c2cc(OCCCO)ccc2N1C(=O)Cc1ccc(OC)cc1
2. CC(=O)c1ccc(C(O)C2C=CC3C(=O)N(C)C(=O)C3N2NC(=O)OC(C)(C)C)cc1 (configuration not stated)

1. 0.403
2. 1.54

---

test: RPMI8226 myeloma cell viability, profiling panel, resazurin fluorescence, basal, 24 h, PK04 Diversity Set (AID 1180); settings: higher = more signal;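 note: RPMI8826 multiple myeloma cell line at 5000 cells per well; test concentration not given here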
Could you please report measured z-score for the items listed next?
Answers are plain numbers.

structure-smiles-string: COc1ccc([Si](C)(C)[C@H]2[C@H](CCO)O[C@@]3(C(=O)N(Cc4ccc(N5CCOC5=O)cc4)c4ccccc43)[C@@H]2C)cc1
endpoint: z-score
meas-value: -2.06

structure-smiles-string: CC(C)[Si](C#CCCCC#N)(O[C@H](c1ccccc1)c1cn([C@H](C)c2ccccc2)nn1)C(C)C
endpoint: z-score
meas-value: 0.409

# batch size: 2; output z-score per entry
1. C=C(CCCC)C(=O)CC[C@H](OC(=O)c1cccnc1)c1ccc(CO)o1
2. Cc1c(-c2ccc(-c3ccc(Cl)c(Cl)c3)o2)nc(-c2ccccc2)c2c1CO[Si]2(C(C)C)C(C)C

1. -0.643
2. -0.639

Data credit: PubChem BioAssay
